Source listed as patent US7345180B2.

Target: DPP-IV (Homo sapiens, UniProt P27487)
Sequence (P27487 39-766 limits assumed): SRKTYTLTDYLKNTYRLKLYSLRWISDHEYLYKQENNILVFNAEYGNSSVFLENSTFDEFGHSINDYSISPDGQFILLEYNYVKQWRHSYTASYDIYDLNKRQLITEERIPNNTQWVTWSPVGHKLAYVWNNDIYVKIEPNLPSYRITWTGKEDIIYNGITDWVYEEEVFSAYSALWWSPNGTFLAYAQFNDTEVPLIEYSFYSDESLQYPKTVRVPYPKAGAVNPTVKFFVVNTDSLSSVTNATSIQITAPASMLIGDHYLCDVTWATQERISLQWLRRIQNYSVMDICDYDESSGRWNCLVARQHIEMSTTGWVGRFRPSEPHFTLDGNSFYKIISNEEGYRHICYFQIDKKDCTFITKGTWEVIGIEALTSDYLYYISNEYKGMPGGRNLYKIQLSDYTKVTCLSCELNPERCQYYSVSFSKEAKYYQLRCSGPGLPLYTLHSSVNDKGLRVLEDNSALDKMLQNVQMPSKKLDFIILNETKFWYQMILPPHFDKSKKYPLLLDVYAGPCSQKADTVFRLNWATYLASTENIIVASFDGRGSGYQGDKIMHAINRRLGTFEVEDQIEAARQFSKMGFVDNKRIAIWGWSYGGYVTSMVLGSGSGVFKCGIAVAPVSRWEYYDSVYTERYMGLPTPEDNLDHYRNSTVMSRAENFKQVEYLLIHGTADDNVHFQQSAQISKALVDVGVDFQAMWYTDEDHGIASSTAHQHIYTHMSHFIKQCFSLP
Assay: DPP-IV inhibition, Gly-Pro-MCA substrate, human plasma as enzyme source (Pharmacological Test Example 1)
Conditions: 30 minutes at room temperature
Assay Endpoint: IC50 (nM)

Study these solved cases before continuing.
[[record]]
compound = "CC(C)(C)Cn1cc(C(=O)NCC(C)(C)NCC(=O)N2CCC[C@H]2C#N)c2cc(O)ccc21 [Example 41]"
assay_endpoint = "IC50"
observed_measurement = 25

[[record]]
compound = "CC(C)(CNC(=O)c1ccc2[nH]ccc2c1)NCC(=O)N1CCC[C@H]1C#N [Example 16]"
assay_endpoint = "IC50"
observed_measurement = 33

[[record]]
compound = "CN1CCc2cc(C(=O)NCC(C)(C)NCC(=O)N3CCC[C@H]3C#N)ccc21 [Example 44]"
assay_endpoint = "IC50"
observed_measurement = 37

[[record]]
compound = "CC(C)(CNC(=O)c1cn(COC(=O)C(C)(C)C)c2ccccc12)NCC(=O)N1CCC[C@H]1C#N [Example 42]"
assay_endpoint = "IC50"
observed_measurement = 27

[[record]]
compound = "CC(C)(CC(=O)N1Cc2ccc(F)cc2C1)NCC(=O)N1CCC[C@H]1C#N [Example 63]"
assay_endpoint = "IC50"
observed_measurement = 18


1. CC(C)(CNC(=O)c1c[nH]c2ccccc12)NCC(=O)N1CCC[C@H]1C#N [Example 15]
2. CC(C)(CNC(=O)c1cn(COCc2ccccc2)c2ccccc12)NCC(=O)N1CCC[C@H]1C#N [Example 33]
INPUT: // task: argmin of IC50 over [ 1 , 2 ] The response must carry the label of the picked entry.
OUTPUT: 1
(1: 28 nM, 2: 71 nM)

----------
Target: DPP-IV (Homo sapiens, UniProt P27487)
Experiment: DPP-IV inhibition, Gly-Pro-MCA substrate, human plasma as enzyme source (Pharmacological Test Example 1)
Conditions: 30 minutes at room temperature
Procedure: In screening of DPP-IV inhibitor, the following method using glycyl-proline-4-methylcumalyl-7-amide (Gly-Pro-MCA) as substrate was used. […] Inhibitory activity on DPP-IV=100×(1−(Fs−Fb)/F100−Fb) F100:fluorescence intensity obtained by reaction with plasma. Fb:fluorescence intensity of a blank where the reaction was carried out with the reaction terminating solution added. Fs:fluorescence intensity obtained by adding the test substance.
pIC50: −log10 of the molar value.
Assay Endpoint: pIC50

Past entries and their recorded results:
[[record]]
compound = "CC(C)(CNC(=O)C1Cc2ccccc2C1)NCC(=O)N1CCC[C@H]1C#N [Example 59]"
assay_endpoint = "pIC50"
observed_measurement = 7.30

[[record]]
compound = "COc1cc(OC)c2cc(C(=O)NCC(C)(C)NCC(=O)N3CCC[C@H]3C#N)n(C)c2c1 [Example 25]"
assay_endpoint = "pIC50"
observed_measurement = 7.32

[[record]]
compound = "COc1cc(C)cc2c1CN(C(=O)CC(C)(C)NCC(=O)N1CCC[C@H]1C#N)C2 [Example 76]"
assay_endpoint = "pIC50"
observed_measurement = 7.66

[[record]]
compound = "N#C[C@@H]1CCCN1C(=O)CNCCC(=O)Nc1nc2ccccc2s1 [Example 93]"
assay_endpoint = "pIC50"
observed_measurement = 7.21


1. CC(C)(CC(=O)N1Cc2c(Cl)c(Cl)c(Cl)c(Cl)c2C1)NCC(=O)N1CCC[C@H]1C#N [Example 73]
2. CC(C)(CNC(=O)c1ccc2c(c1)CCN2C(=O)C(F)(F)F)NCC(=O)N1CCC[C@H]1C#N [Example 50]
3. CC(C)(CNC(=O)c1ccc2c(ccn2COCc2ccccc2)c1)NCC(=O)N1CCC[C@H]1C#N [Example 36]
INPUT: Arrange these 3 compounds in increasing order of pIC50. API: response body holds the labels in the requested order.
OUTPUT: 1, 3, 2
